Data provenance is PubChem BioAssay (NCI).

growth values by entry
test system: RXF 393 renal; assay: NCI-60 one-dose screen, 48 h (100 = growth as untreated, 0 = no growth, -100 = all killed); details: 10 µM unless noted
This is part of a sample that, as a whole, favours compounds with a hit. Of some 83,000 tested, about 20% had one in any assay.
Output spec: scalar in %, unitless text.

molecule	growth / %
CN(C)CCCNC(=O)c1cc(NC(=O)c2cc(NC(=O)c3ccc(C#Cc4ccccc4)cc3)cn2C)cn1C	-37.7
N#Cc1c(NCc2ccccc2)n[nH]c1Nc1ccccc1	60.7
CCOC(=O)/C=C/c1cccc2c1C(=O)NC(C)(c1cc3cc(Cl)ccc3oc1=O)N2 (stereo not given)	-1.81

I am curious: what growth value has been reported for "COc1ccc(/C=C/c2n(Cc3ccc4ccccc4c3)c3ccccc3[n+]2Cc2ccc3ccccc3c2)cc1" ? -74.7

And "Cc1cc(=O)oc2cc(OCCCCOc3ccc(/C=C/C(=O)Nc4ccccc4N)cc3)ccc12" ? 90.9

----------
system: OVCAR-3 ovarian; experiment: NCI-60 one-dose screen, 48 h (100 = growth as untreated, 0 = no growth, -100 = all killed); conditions: 10 µM unless noted
The panel holds about 83,000 compounds, 20% with a hit somewhere; the sample as a whole holds those more often.
reportedProperty: growth (%)
Output spec: scalar in %, unitless text.

molecule	studySystem	growth / %
Cn1cc(-c2nnc(N)nc2-c2c[nH]c3ccc(F)cc23)c2cccnc21	OVCAR-3 ovarian	25.3
Cc1ccc(/C=C/c2n(Cc3ccc4ccccc4c3)c3ccccc3[n+]2Cc2ccc3ccccc3c2)cc1	OVCAR-3 ovarian	-83.3
CN1C(=O)/C(=C/c2ccc(C(=O)Nc3ncc(Cc4ccc(Cl)cc4Cl)s3)cc2)SC1=S	OVCAR-3 ovarian	12.9
CC1(C)CC[C@]2(C(=O)O)CC[C@]3(C)C(=CCC4[C@@]5(C)C[C@@H](O)[C@@H]6OC(c7ccccc7F)OC[C@@]6(C)C5CC[C@]43C)C2C1 (stereo partly drawn)	OVCAR-3 ovarian	-11
C=C1CC[C@@H]2[C@]3(C)COC(c4cn[nH]c4-c4cccc(Cl)c4)O[C@@H]3CC[C@@]2(C)[C@@H]1C/C=C1/C(=O)OCC1O (stereo partly drawn)	OVCAR-3 ovarian	-62

I am curious: what growth value has been reported for "CC(=O)Nc1ccc(-c2nc3cc(-c4ccc(O)cc4)ccc3n2C)cc1" ? 49

And "NS(=O)(=O)c1ccc(NNC(=O)CCC(=O)c2ccccc2)cc1" ? 114

----------
Test system: HCT-116 colon
Assay: NCI-60 one-dose screen, 48 h
Conditions: 10 µM unless noted
Protocol: Growth inhibition of the HCT-116 human tumor cell line is measured as a screen for anti-cancer activity. Cells are grown in 96 well plates and exposed to the test compound for 48 hours. Compounds are tested at a single concentration, which is 10^-5 M for most compounds. The reported endpoint is percent growth (GI% or GIPRCNT), where numbers from 0 - 100% represent growth inhibition, and numbers from -100% - 0 represent cell death. For example, a value of 40 represents 60% growth inhibition. […]
This is part of a sample that, as a whole, favours compounds with a hit. Of some 83,000 tested, about 20% had one in any assay. Activity calls are given as the source filed them. The calls were made as follows: active = growth percent below 10; inactive = the rest.
Pick from active, inactive when you respond.

Check out these entries, answers already filled in.
molecule	studySystem	assignedLabel
Cc1cccc(NC(=O)[C@]23CCC(C)(C)CC2C2=CCC4[C@@]5(C)C[C@@H](O)[C@H](O)[C@@](C)(CO)C5CC[C@@]4(C)[C@]2(C)CC3)c1 (stereo not given in full)	HCT-116 colon	active
COc1ccc(NC(=O)Cn2c(/C=C/c3cccc([N+](=O)[O-])c3)nc3ccccc3c2=O)cc1	HCT-116 colon	inactive
COc1cc(-c2ccc(/C=N/NC(=O)c3[nH]c4ccc(Br)cc4c3-c3ccccc3)o2)cc(OC)c1OC	HCT-116 colon	inactive
Cn1cc(-c2cc3nc(-c4c[nH]c5ccc(Br)cc45)cc(N)n3n2)c2ccccc21	HCT-116 colon	active

Attention now shifts to the item below.
Please share the test call associated with "N#Cc1c(-c2cccc3ccccc23)cc(-c2cccc(OCC(=O)O)c2)[nH]c1=O" . inactive

----------
growth values by entry
test system: MALME-3M melanoma; experiment: NCI-60 one-dose screen, 48 h (100 = growth as untreated, 0 = no growth, -100 = all killed); conditions: 10 µM unless noted
About 83,000 compounds went through this panel and 20% of them were active in at least one assay; those are over-represented in the sample as a whole.
Output spec: scalar in %, unitless text.

I am curious: what growth value has been reported for "COc1cc2oc(-c3cccc(NC(=O)[C@H](CC(N)=O)NC(=O)OC(C)(C)C)c3)cc(=O)c2c(OC)c1OC" ? 107

And "COc1ccc2[nH]cc(-c3nc(N)nnc3-c3cn(C)c4ncccc34)c2c1" ? 37.6

And "O=C(O)c1ccc(-c2ccc(/C=N/NC(=O)c3[nH]c4ccc(Br)cc4c3-c3ccccc3)s2)cc1" ? -8.14

And COc1cc2c(c(OC)c1OC)C(=O)CC(c1cccc(NC(=O)c3cc([N+](=O)[O-])ccc3Cl)c1)O2 (centres undefined) ? 51.9

And "COc1cc2oc(-c3cccc(C(=O)Nc4cccc([N+](=O)[O-])c4)c3)cc(=O)c2c(OC)c1OC" ? 11.4

And "O=C(CCN1C(=O)/C(=C/c2ccc(F)cc2)SC1=S)N1CCOCC1" ? 46.1

And "COc1ccc2c(c1)c(-c1cc3nc(-c4cn(C)c5ncccc45)cc(N)n3n1)cn2C" ? -95.3

And C=C1CCC2C3(C)COC(c4cccs4)OC3CCC2(C)C1CC(Sc1ccccc1)C1=CCOC1=O (centres undefined) ? 103

And "CNC(=O)c1cc(Oc2ccc3nc(NC(=O)Nc4cccc(OC(F)(F)F)c4)sc3c2)ccn1" ? -25.2

----------
test system: SF-539 CNS; assay: NCI-60 one-dose screen, 48 h (100 = growth as untreated, 0 = no growth, -100 = all killed); settings: 10 µM unless noted
Compounds without any hit were thinned out: in the full panel of roughly 83,000, 20% have a hit. The source made the active and inactive calls. How the source made its calls: active means growth percent below 10; inactive means the rest.
growth values by entry

Example entries and their recorded answers appear below.
compound	studySystem	readoutValue
COc1ccc(C(=O)Nc2n[nH]c(Nc3ccccc3)c2C#N)cc1	SF-539 CNS	98.3% (inactive)
CC(C)c1ccc2c(N)c(C(=O)Nc3cccc(C(F)(F)F)c3)sc2n1	SF-539 CNS	66.6% (inactive)
CN(C)CCOc1ccc(C(=O)C2[C@H](c3ccc(Cl)cc3)[C@@H](c3ccccc3)NC23C(=O)Nc2ccccc23)cc1 (some centres undefined)	SF-539 CNS	82.8% (inactive)
CC(=O)/C=C/c1cccc2c1C(=O)NC(C)(c1cc3cc(Br)ccc3oc1=O)N2 (centres undefined)	SF-539 CNS	19.2% (inactive)
CSc1ccccc1NC(=O)c1ccc2nn(/C(C#N)=C/c3ccccn3)nc2c1	SF-539 CNS	-93.1% (active)

I am curious: what growth value has been reported for "Nc1n[nH]c2cccc(C#Cc3cccc(NC(=O)c4cccc(Cl)c4)c3)c12" ? 8.74% (active)

And COc1ccc(NC(=O)[C@H](C)N)cc1C(=O)Nc1cccc(C2CC(=O)c3c(cc(OC)c(OC)c3OC)O2)c1 (some centres undefined) ? 89.3% (inactive)

And "CC(C)CSc1nc(NCCc2c[nH]c3ccccc23)c(C#N)c(-c2ccccc2)n1" ? 62.5% (inactive)

And CC1(C)CC[C@]2(C(=O)O)CC[C@]3(C)C(=CCC4[C@@]5(C)C[C@@H](O)[C@@H]6OC(c7ccccc7F)OC[C@@]6(C)C5CC[C@]43C)C2C1 (some centres undefined) ? 5.14% (active)

----------
Test system: HCT-116 colon
Assay: NCI-60 one-dose screen, 48 h (100 = growth as untreated, 0 = no growth, -100 = all killed)
Conditions: 10 µM unless noted
Procedure: Growth inhibition of the HCT-116 human tumor cell line is measured as a screen for anti-cancer activity. Cells are grown in 96 well plates and exposed to the test compound for 48 hours. Compounds are tested at a single concentration, which is 10^-5 M for most compounds. The reported endpoint is percent growth (GI% or GIPRCNT), where numbers from 0 - 100% represent growth inhibition, and numbers from -100% - 0 represent cell death. For example, a value of 40 represents 60% growth inhibition. […]
The panel holds about 83,000 compounds, 20% with a hit somewhere; the sample as a whole holds those more often.
reportedProperty: growth (%)
Output spec: scalar in %, unitless text.

Example entries and their recorded answers appear below.
compound	studySystem	growth [%]
COc1ccc(/C=C2\C(=O)Nc3ccc(Cl)cc32)cc1OCc1ccccn1	HCT-116 colon	21.1
COCOc1ccc2c(=O)c(C)c(C(=O)N[C@@H](Cc3ccccc3)C(O)C(=O)NCCc3ccc(OC)cc3)oc2c1 (stereo not given in full)	HCT-116 colon	104
CN(C)c1ccnc(CNCCSC2(c3ccccc3)c3ccccc3C=Cc3ccccc32)c1	HCT-116 colon	-38.8
COc1cc(OC)c2c3nc4cc(C)c(C)cc4nc3n(CCN(C)C)c2c1	HCT-116 colon	39.5

I am curious: what growth value has been reported for "Cc1ccc(S(=O)(=O)c2nc(S(=O)(=O)c3ccc(C)cc3)c(Cl)s2)cc1" ? -46.2
